test: Oral toxicity in mice (deaths, LD50); conditions: mice
Min Dose (mg/kg) at which deaths occurred values for the molecules below.
Respond with the bare value in mg/kg.

Below: 3 molecules and their reported Min Dose (mg/kg) at which deaths occurred.
According to the records, this molecule CN(C)CCOc1ccc2c(c1)C(=O)C(C)(C)CC2c1ccc(Cl)c(Cl)c1 (stereo not shown) displays Min Dose (mg/kg) at which deaths occurred of 10

According to the records, this molecule CN(C)CCOc1ccc2c(c1)C(=O)C(C)(C)CC2c1ccc(Cl)cc1 (stereo not shown) displays Min Dose (mg/kg) at which deaths occurred of 10

According to the records, this molecule CN(C)CCOc1ccc2c(c1)C(Cl)C(C)(C)CC2c1ccc(Cl)cc1 (stereo not shown) [CH2 CH3 CHCl Cl H] displays Min Dose (mg/kg) at which deaths occurred of 30

Moving on to the next molecule.
According to the records, this molecule CN(C)CCOc1ccc2c(c1)C(O)C(C)(C)CC2c1ccc(Cl)cc1 (stereo not shown) displays Min Dose (mg/kg) at which deaths occurred of 3
